Where do these numbers come from? They come from PubChem BioAssay AID596.

Target: Microtubule-associated protein tau (Homo sapiens)
Assay: qHTS Assay for Tau Filament Binding;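 further: actives lower thioflavin S fluorescence by blocking filaments or displacing dye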
Details: recombinant tau filaments, thioflavin S fluorescence, 15 h, filaments grown with octadecylsulfate alongside compound; series mostly up to 57.1 µM
Hit rate of the full screen: of about 71,000 compounds, about 1,400 (2%) were called active. Inconclusive results (about 3%) are left out. The call rests on the fitted dose curve; in most records, active means well fitted curve in the direction sought with a large enough effect; inconclusive means small, poorly fitted or top-dose-only effect; inactive means no such curve, though single readings can be large or run the other way. The entries come from a sample that favours actives as a whole.
Select the matching outcome among active, inactive

>>> class_name("Cc1c(C)c2c(c(C)c1O)CC[C@@](C)(CN1CCN(c3cc(N4CCCC4)nc(N4CCCC4)n3)CC1)O2")
"active"
>>> class_name("C/C(=C\\c1ccco1)C1Nc2cccc3cccc(c23)N1")
"active"
>>> class_name("Cc1cccc(NC(=O)C2CCN(S(=O)(=O)c3cccc4cccnc34)CC2)c1")
"inactive"
>>> class_name("CCSC1=C(C#N)C(=O)n2c1cc1c2CCCC1")
"active"
>>> class_name("CCOC(=O)CSc1nc2c(sc(=S)n2CCc2ccccc2)c(=O)n1Cc1ccco1")
"inactive"
>>> class_name("CCc1ccc(N(CC)c2ncnc3nc[nH]c23)cc1")
"inactive"
>>> class_name("O=c1c2ccccc2oc2nc(C3CCCCC3)n(Cc3ccco3)c(=O)c12")
"inactive"
>>> class_name("CC(=O)OCCC(C)C")
"inactive"

How was `CCSc1ncnc2c(C#N)c3n(c12)CCCCC3` classified in this test?
inactive

Likewise for `O=c1cc(-c2ccc(O)c(O)c2)oc2cccc(O)c12` ?
active

Likewise for `Cc1cccn2c(=O)c3cc(C#N)c(=O)n(CCCN4CCOCC4)c3nc12` ?
inactive
